Source: ChEMBL document CHEMBL1201862

System: LOX IMVI
Test: NCI tumour cell line growth inhibition, 48 h
Active and inactive are the calls of the source. No stated cut-off is given here; in the data, active = GI50 up to about 1.1 µM and inactive = higher.
Listing: GI50 of selected compounds

{"compound": "Cn1cc2c3ccccc3nc-2c2ccccc21 [ISOCRYPTOLEPINE]", "GI50": "1.77 µM (inactive)"}
{"compound": "CC1(C)C2CCC1(CC(=O)O)C(Cl)C2 (configuration not stated)", "GI50": "> 100 µM (inactive)"}
{"compound": "Cc1cc(OC2OC(CO)C(O)C(O)C2O)ccc1O (configuration not stated)", "GI50": "> 100 µM (inactive)"}
{"compound": "CNC1=C/C(=N/C2=CC(=N/C(=C\\C#N)C(C)(C)O)/OC2(C)C)OC1(C)C", "GI50": "5.51 µM (inactive)"}
{"compound": "NC1=NN(c2ccccc2)C(=O)C1/C(=N\\NC(=O)c1cc2ccccc2cc1O)C(=O)Nc1nc([N+](=O)[O-])cs1 (configuration not stated)", "GI50": "18.4 µM (inactive)"}
{"compound": "C=C1C[C@@H](O)[C@@H](Br)C(C)(C)[C@@]12C=CC(=O)CC2", "GI50": "> 100 µM (inactive)"}
{"compound": "O=C1O/C(=C\\c2ccc(O)c(Br)c2)C(c2ccc(O)cc2)=C1Cl", "GI50": "42.2 µM (inactive)"}

---

Test system: A549
Test: NCI tumour cell line growth inhibition, 48 h
Calls of active or inactive are those of the source. Rule as the data show it: active = GI50 up to about 1.1 µM and inactive = higher.
Possible outcomes: active, inactive

{"compound": "COC(=O)C(CCCCN)NC(C)=O.Cc1ccc(C(=O)Nc2ccc(S(=O)(=O)O)c3cc(S(=O)(=O)O)cc(S(=O)(=O)O)c23)cc1NC(=O)c1cccc(NC(=O)Nc2cccc(C(=O)Nc3cc(C(=O)Nc4ccc(S(=O)(=O)O)c5cc(S(=O)(=O)O)cc(S(=O)(=O)O)c45)ccc3C)c2)c1", "answerLabel": "inactive"}
{"compound": "COc1ccc(OC)c(/C=N/N=C2\\C(=O)Nc3c(Cl)cc(Cl)cc32)c1", "answerLabel": "inactive"}
{"compound": "Cc1ccc(-n2nncc2[Si](C)(C)C)s1", "answerLabel": "inactive"}
{"compound": "O=[N+]([O-])C(=C(Nc1cccc2cccnc12)Nc1cccc2cccnc12)C(Cl)=C(Cl)Cl", "answerLabel": "inactive"}
{"compound": "CO[C@@H]1C[C@H](OC(N)=O)[C@@H]2C=C[C@@H]3/C=C(C)/C=C/[C@@H](C)[C@H]([C@H](C)[C@H](O)[C@@H](C)NC(C)=O)OC(=O)/C=C/C=C(C)\\C=C\\[C@]3(C)[C@@H]2C1", "answerLabel": "active"}
{"compound": "CCOC(=O)C1=C(C)CC2C(=O)OC(=O)C2C1(C)C (stereo unspecified)", "answerLabel": "inactive"}
{"compound": "Cc1cs/c(=N\\C(P(=O)(O)O)P(=O)(O)O)n1C", "answerLabel": "inactive"}
{"compound": "Cc1ccc(N2C(=O)C3CSCN3C2=O)cc1 (stereo unspecified)", "answerLabel": "inactive"}
{"compound": "COC(=O)c1cccc(C)c1C1CN=NC12Cc1c(ccc(C)c1C)C2=O (stereo unspecified)", "answerLabel": "inactive"}
{"compound": "COC(=O)C(Cc1ccc2c(c1)CCC2)Cc1ccc2c(c1)CCC2", "answerLabel": "inactive"}
{"compound": "CNC1=C/C(=N/C2=CC(=N/C(=C\\C#N)C(C)(C)O)/OC2(C)C)OC1(C)C", "answerLabel": "inactive"}
{"compound": "COc1ccc(-c2cc3cc(Cl)cc(Cl)c3oc2=O)cc1OC", "answerLabel": "inactive"}
{"compound": "CC1=C2C(=O)c3ccccc3C(=O)[C@H]2C[C@@H](N2CCCCCC2=O)O1", "answerLabel": "inactive"}
{"compound": "COC(=O)[C@]1(C)CC[C@]2(C)CC[C@]3(C)C4[C@H]5Oc6c(cc7c(c6C)CCC6[C@@]7(C)CC[C@@]7(C)C8[C@](C)(CCC[C@@]8(C)C(=O)OC)CC[C@]67C)O[C@H]5c5c(cc6c(c5C)O[C@@]5(C)C7=CC=C8[C@@](C)(CC[C@@]9(C)[C@@H]%10C[C@](C)(C(=O)OC)CC[C@]%10(C)CC[C@]89C)C7=CC(=O)[C@@]5(O)O6)[C@]4(C)CC[C@@]3(C)C2C1 (stereo partly specified)", "answerLabel": "inactive"}
{"compound": "N#C/C(=C/n1c(=S)[nH]c2ccc([N+](=O)[O-])cc21)C(N)=O", "answerLabel": "inactive"}
{"compound": "CC(=O)c1cc2c(s1)C(=O)c1ccsc1C2=O", "answerLabel": "inactive"}
{"compound": "CCN(CC)CC[n+]1ccc2c(C)c3[nH]c4ccc(O)cc4c3c(C)c2c1", "answerLabel": "inactive"}
{"compound": "Cc1ccc(NC(=O)CCC/C(CC(=O)c2ccc(Br)cc2)=N/NC(=O)CC#N)cc1", "answerLabel": "inactive"}
{"compound": "Nc1ccc(C(=O)N2CCC[C@H]2CO)c(N)c1", "answerLabel": "inactive"}
{"compound": "CCOC(=O)[C@H]1C[C@@H](C(=O)c2ccccc2)N2N=C(c3ccc(Br)cc3)C=C[C@H]12", "answerLabel": "inactive"}
{"compound": "CON(C)c1nc(N(C)OC)nc(N(C)OC)n1", "answerLabel": "inactive"}
{"compound": "CC[C@@H]1OC2(C)CC(S(=O)(=O)c3ccccc3O)CC1O2 (stereo partly specified)", "answerLabel": "inactive"}
{"compound": "CCCCCCCCCCCCCCCC[N+](C)(C)CCl", "answerLabel": "inactive"}
{"compound": "CN(C)Cc1cc(C(=O)/C=C/c2ccc(Cl)cc2)cc(CN(C)C)c1O", "answerLabel": "inactive"}
{"compound": "C[C@@H](c1ccccc1)N1CN(C(=O)OCc2ccccc2)C(CO)C1=O (stereo partly specified)", "answerLabel": "inactive"}
{"compound": "COC(=O)c1ccc(COC(=O)N2C=CCC2C(=O)O)cc1 (stereo unspecified)", "answerLabel": "inactive"}
{"compound": "COc1ccc2c(c1)CCC1C3(CCCC21C)OCCO3 (stereo unspecified)", "answerLabel": "inactive"}
{"compound": "COC(=O)c1cc(-c2cccn2C)c2c(c1C(=O)OC)c1ccccc1n2C", "answerLabel": "inactive"}
{"compound": "O=C(/C=C/c1ccccc1Cl)c1ccc(Cl)c(Cl)c1", "answerLabel": "inactive"}
{"compound": "COC(=O)CCC(C)[C@H]1CCC2C3C(C[C@H](OC(C)=O)[C@@]21C)[C@@]1(C)CCC2(C[C@H]1C[C@H]3OC(C)=O)OOC1(CCCCCCC1)OO2 (stereo partly specified)", "answerLabel": "inactive"}
{"compound": "C1=N\\CCOCC/N=C\\c2ccc(cc2)OCc2cccc(n2)COc2ccc/1cc2", "answerLabel": "inactive"}
{"compound": "C=CCc1c(O)c2c(c3oc(=O)cc(C)c13)CC(C)O2 (stereo unspecified)", "answerLabel": "inactive"}
{"compound": "COc1ccc2nc3ccccc3c(NCCCCCCN(C)CCCl)c2c1", "answerLabel": "active"}
{"compound": "CC(C)=CCOc1ccc(-c2coc3cc4c(c(O)c3c2=O)C=CC(C)(C)O4)cc1", "answerLabel": "inactive"}
{"compound": "COc1ccc2c3c1OC1C(=O)C=CC4(CC2)N(C)CCC314 (stereo unspecified)", "answerLabel": "inactive"}
{"compound": "CCC1(c2ccc(N3C(=O)c4ccccc4C3=O)cc2)CCC(=O)NC1=O (stereo unspecified)", "answerLabel": "inactive"}
